system: MINK; construct: gene MINK1; settings: concentration: 1 μM, replicates: in singlicate; n = 1;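 further: KINOMEscan kinase panel screen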
Lab note: anything with %Inh at or over 10% counts as criterion met; the rest go in criterion not met.

| compound | measured_target | label_value |
| --- | --- | --- |
| COc1ccc(CNC(=O)NC2CCN(c3ccnc(Nc4ccc(F)cc4)n3)CC2)cc1 [GSK1379788] | MINK | criterion not met |
| CNC(=O)c1ccccc1Nc1nc(Nc2ccc(N3CCOCC3)cc2)ncc1Cl.Cl [GSK1576028] | MINK | criterion met |
| Cn1cc(-c2[nH]c3cc(NC(=O)[C@H](N)C4CCCCC4)cc4c3c2C=NNC4=O)cn1 | MINK | criterion met |
| FC(F)(F)c1ccc(/C=C/c2cncnc2Nc2ccc3[nH]c(Cc4ccccc4)nc3c2)cc1 [GW709199] | MINK | criterion not met |
| Cc1cccc(NC(=O)Nc2ccc(Oc3ncnc4ccn(C)c34)cc2)c1 | MINK | criterion not met |

====

system: PRKG2; settings: concentration: 1 μM, replicates: in singlicate; n = 1
Consider the following compounds and their measured %Inh readings.

| compound | value_units | %Inh |
| --- | --- | --- |
| O=c1[nH]cc(-c2ccc(N3CCOCC3)cc2)c2sc(-c3cn[nH]c3)cc12 | % | 10 |
| COC(=O)Nc1nc2cc(Oc3ccc(NC(=O)Nc4cc(C(F)(F)F)ccc4F)cn3)ccc2[nH]1.Cl.Cl | % | 22 |
| C[C@@H](Oc1cc(-n2cnc3cc(-c4ccnc(NCCS(C)(=O)=O)c4)ccc32)sc1C(N)=O)c1ccccc1Cl | % | 0 |
| CCn1c(-c2nonc2N)nc2c(C#CC(C)(C)O)nc(OC[C@H](N)c3ccccc3)cc21 | % | 92.6 |
| O=C(Nc1n[nH]c2cc(-c3ccoc3)ccc12)C1CC1 | % | 14 |
| FC(F)(F)c1ccc(/C=C/c2cncnc2Nc2ccc3[nH]c(Cc4ccccc4)nc3c2)cc1 | % | 6 |
| O=C(NC1CCN(c2ccnc(Nc3ccc(F)cc3)n2)C1)c1cc2ccccc2s1 (centres unmarked) | % | 0 |
| CN(C)S(=O)(=O)c1cc(-c2ccc3nccc(-c4cccc(S(N)(=O)=O)c4)c3c2)cnc1N | % | 76 |
| CCS(=O)(=O)c1ccc(OC)c(Nc2nccc(-c3c(-c4cccc(NC(=O)c5c(F)cccc5F)c4)nn4ncccc34)n2)c1 | % | 3 |
| Oc1cc(Nc2ccnc3cc(I)ccc23)ccc1F | % | 0 |
| Cl.c1ccc(-c2ccc3c(Nc4ccc5[nH]ccc5c4)ccnc3c2)nc1 | % | 0 |
| Cl.Cl.NCC(NC(=O)c1cc(-c2ccccc2)c(-c2ccnc3[nH]ccc23)s1)c1ccccc1 (centres unmarked) | % | 18 |
| COc1ccc(Nc2nccc(N3CCC(NC(=O)Nc4cccc(OC)c4)C3)n2)cc1 (centres unmarked) | % | 0 |
| COc1cccc(C(=O)Nc2cccc(Oc3ccc4nc(NC(=O)C5CC5)cn4n3)c2)c1 | % | 21 |
| COc1cc(Nc2ncc3c(C)nc(-c4cc5ccccc5[nH]4)n3n2)cc(OC)c1OC | % | 0 |
| c1ccc(-c2cnc3nccnn23)cc1 | % | 0 |
| Clc1ccc(-c2nn3ncccc3c2-c2ccnc(Nc3ccc4c(c3)OCCO4)n2)cc1 | % | 0 |

====

Consider the following molecules and their measured %Inh readings.
tested on: HIPK1; conditions: concentration: 1 μM, replicates: in singlicate; n = 1

| molecule | measured_target | %Inh |
| --- | --- | --- |
| O=C(Nc1cccc(-c2nn3ccccc3c2-c2ccnc(Nc3cccc(F)c3)n2)c1)c1c(F)ccc(F)c1Cl | HIPK1 | 0% |
| CC(C)c1nc(-c2cccc(NS(=O)(=O)c3c(F)cccc3F)c2F)c(-c2ccnc(Nc3ccc(N4CCOCC4)nc3)n2)s1 | HIPK1 | 91.1% |
| NCCCC(NC(=O)c1cc(Br)c(-c2ccnc3[nH]ccc23)s1)c1ccccc1.O=C(O)C(F)(F)F.O=C(O)C(F)(F)F (stereo not drawn) | HIPK1 | 39% |
| CN(c1ccc(NC(=O)Nc2cc(C(F)(F)F)ccc2F)cc1)c1ccnc(Nc2ccc(S(N)(=O)=O)cc2)n1 | HIPK1 | 59% |
| CN1CCN(Cc2cccc(-c3ccc4c(Nc5ccc(Oc6ccccc6)cc5)ccnc4c3)c2)CC1 | HIPK1 | 0% |
| COc1cccc(C2=C(Nc3ccc(Cl)c(C(=O)O)c3)C(=O)NC2=O)c1 | HIPK1 | 7% |
| CCn1c(-c2nonc2N)nc2c(C#CC(C)(C)O)ncc(OCCCCN)c21.O=C(O)C(F)(F)F.O=C(O)C(F)(F)F | HIPK1 | 47% |
| COc1cc(Nc2nccc(N3CCC(NC(=O)Nc4cccc(C(C)=O)c4)C3)n2)cc(OC)c1OC (stereo not drawn) | HIPK1 | 0% |
| Nc1ncc(-c2cccnc2)c2scc(-c3ccc4c(c3)CCN4C(=O)Cc3ccccc3)c12 | HIPK1 | 20% |
| Clc1ccc(-c2nn3ncccc3c2-c2ccnc(Nc3ccc4c(c3)OCCO4)n2)cc1 | HIPK1 | 14% |
| O=C(Nc1ccccc1F)NC1CCN(c2ccnc(Nc3ccc(F)cc3)n2)CC1 | HIPK1 | 0% |
| Oc1cc(Nc2ccnc3cc(I)ccc23)ccc1F | HIPK1 | 42% |
| Nc1n[nH]c2cnc(-c3ccccc3)cc12 | HIPK1 | 64% |
| Cc1ccc(C(=O)Nc2ccc(Nc3ccnc4cc(-c5nccs5)ccc34)cc2O)cc1.Cl | HIPK1 | 0% |
| COc1ccc(Nc2nccc(N3CCC(NC(=O)Nc4cccc(OC)c4)C3)n2)cc1 (stereo not drawn) | HIPK1 | 0% |
| COc1cc(Nc2nccc(N3CCC(NC(=O)c4cc5ccccc5s4)C3)n2)cc(OC)c1OC (stereo not drawn) | HIPK1 | 9% |
| CSc1cccc2c(-c3ccncn3)c(-c3ccc(F)cc3)nn12 | HIPK1 | 9% |
| Cc1occc1-c1ncc(OC[C@@H](N)Cc2c[nH]c3ccccc23)cc1-c1ccc2[nH]nc(C)c2c1.O=C(O)C(F)(F)F | HIPK1 | 0% |
| O=C(Nc1n[nH]c2cc(-c3ccoc3)ccc12)C1CC1 | HIPK1 | 57% |
| CC(C)(C)c1ccc2nccc(Nc3cccc(O)c3)c2c1 | HIPK1 | 18% |
| CN(C)S(=O)(=O)c1cc(-c2ccc3nccc(-c4cccc(S(N)(=O)=O)c4)c3c2)cnc1N | HIPK1 | 49% |
| COc1cccc(C(=O)Nc2cccc(Oc3ccc4nc(NC(=O)C5CC5)cn4n3)c2)c1 | HIPK1 | 37% |
| COC(=O)Nc1nc2cc(Oc3ccc(NC(=O)Nc4cc(C(F)(F)F)ccc4F)cn3)ccc2[nH]1.Cl.Cl | HIPK1 | 0% |
| CCS(=O)(=O)c1ccc(OC)c(Nc2nccc(-c3c(-c4cccc(NC(=O)c5c(F)cccc5F)c4)nn4ncccc34)n2)c1 | HIPK1 | 0% |
| Cn1cc(-c2[nH]c3cc(NC(=O)[C@H](N)C4CCCCC4)cc4c3c2C=NNC4=O)cn1 | HIPK1 | 88% |
| COCCOCCOc1cc2ncc3c4ccc(C#N)cc4[nH]c3c2cc1OC | HIPK1 | 90.3% |
| Cc1cccc(Nc2nc(N[C@H]3CCNC3)ncc2C(N)=O)c1.Cl | HIPK1 | 21% |
| Cn1cc(-c2ccc3c(c2)CCN3C(=O)Cc2cccc(Cl)c2)c2c(N)ncnc21 | HIPK1 | 13% |
| c1ccc(-c2cnc3nccnn23)cc1 | HIPK1 | 0% |
| O=C(Nc1cccc(-c2nn3ncccc3c2-c2ccnc(Nc3ccccc3)n2)c1)c1c(F)cccc1F | HIPK1 | 0% |
| Cl.Cl.NCC(C(=O)Nc1cc(Br)c(-c2ccnc3[nH]ccc23)s1)c1ccccc1 (stereo not drawn) | HIPK1 | 48% |
| CN1CCN(CCCNc2nccc(-c3c(-c4ccc(F)cc4)nn4cc(C(F)(F)F)ccc34)n2)CC1 | HIPK1 | 0% |
| Cl.c1ccc(-c2ccc3c(Nc4ccc5[nH]ccc5c4)ccnc3c2)nc1 | HIPK1 | 0% |

====

system: GRK4; details: concentration: 1 μM, replicates: in singlicate; n = 1
Consider the following compounds and their measured %Inh readings.

| compound | %Inh / % |
| --- | --- |
| COc1cccc(C(=O)Nc2cccc(Oc3ccc4nc(NC(=O)C5CC5)cn4n3)c2)c1 | 0 |
| COCCOCCOc1cc2ncc3c4ccc(C#N)cc4[nH]c3c2cc1OC | 83 |
| Nc1ncnc2c1nc(-c1ccccc1)n2-c1ccccc1 [SKF-97293] | 13 |
| O=C(Nc1n[nH]c2cc(-c3ccoc3)ccc12)C1CC1 [SB-738481] | 44 |
| Cn1cc(-c2[nH]c3cc(NC(=O)[C@H](N)C4CCCCC4)cc4c3c2C=NNC4=O)cn1 | 97.1 |
| COc1ccc(-c2coc3ccc(-c4nnc(SCc5ccc(OC)c(C(F)(F)F)c5)o4)cc23)cc1 | 0 |
| O=C(NC1CCN(c2ccnc(Nc3ccc(F)cc3)n2)C1)c1cc2ccccc2s1 (centres unmarked) [GSK1379716] | 0 |
| COc1cccc(C2=C(Nc3ccc(Cl)c(C(=O)O)c3)C(=O)NC2=O)c1 [SB-390769] | 14 |
| Cc1ccc(C(=O)N2CC[C@@H](O)C2)cc1-n1c(C)cc(OCc2ccc(F)cc2F)c(Br)c1=O | 0 |
| Cl.NC(=O)c1cccc(Nc2nccc(Nc3ccc(Oc4c(Cl)cccc4Cl)c(Cl)c3)n2)c1 [GW659009] | 4 |
| Cl.Cl.NCC(NCc1ccc(-c2ccnc3[nH]ccc23)s1)c1ccccc1 (centres unmarked) [GSK1321565] | 82 |
| O=C(Nc1cccc(Oc2ccc3nc(NC(=O)C4CC4)cn3n2)c1)c1ccccc1C(F)(F)F | 46 |
| Cl.Cl.NCC(NC(=O)c1cc(-c2ccccc2)c(-c2ccnc3[nH]ccc23)s1)c1ccccc1 (centres unmarked) [GSK1321561] | 0 |
| O=C(Nc1cccc(-c2nn3ncccc3c2-c2ccnc(Nc3ccccc3)n2)c1)c1c(F)cccc1F [GSK198271] | 1 |
| CSc1cccc2c(-c3ccncn3)c(-c3ccc(F)cc3)nn12 [GW514786] | 100 |
| COc1ccc(CNC(=O)NC2CCN(c3ccnc(Nc4ccc(F)cc4)n3)CC2)cc1 [GSK1379788] | 0 |
| Cn1cc(-c2ccc3c(c2)CCN3C(=O)Cc2cccc(F)c2)c2c(N)ncnc21 [GSK2603358] | 0 |
